Test system: H1792 LUAD cells
Test: Chemical proteomics target profiling in live H1792 cells (label-free LC-MS/MS, comparison with control probe 22 and panel-wide cross-comparison)
Format: binding, human
Settings: log2 ratio vs. control probe >2.32
Measured parameter: number of probe-enriched target candidates over control probe 22 (promiscuity)

The following molecules have reported results that may help.
Molecule	Observed
C#CCCC1(CCC(=O)N2CC(Nc3ncccn3)C2)N=N1	few
C#CCCC1(CCC(=O)N2CCN(Cc3nc(-c4cccs4)cs3)CC2)N=N1	most promiscuous
C#CCCC1(CCC(=O)Nc2ccc3c(c2)N(CC(C)C)C(=O)C(C)(C)CO3)N=N1	most promiscuous
C#CCCC1(CCC(=O)NC2CC(Oc3nccn4nc(C)cc34)CC(C)(C)C2)N=N1 (stereo not drawn)	most promiscuous
C#CCCC1(CCC(=O)N2CCC(Oc3ncc(C(F)(F)F)cc3Cl)C2)N=N1 (stereo not drawn)	most promiscuous

Measured number of probe-enriched target candidates over control probe 22 (promiscuity) of C#CCCC1(CCC(=O)N2CCCCC2c2nnc(C(=O)OC)s2)N=N1 (stereo not drawn) : few
